test: in vivo; conditions: BALB/c nude, mouse, in vivo, iv, total radioactivity, % ID/g Fat
Value Kind: tissue uptake at 24 h (%ID/g)
Give just the number in %ID/g; leave the unit off.

Q. Report tissue uptake at 24 h for C[C@@H](O)[C@H](NC(=O)[C@@H]1CSSC[C@H](NC(=O)[C@@H](Cc2ccccc2)NC(=O)[C@H](CCCCNC(=O)COCCOCCNC(=O)c2cccc(NC(=O)N[C@@H]3CN(C4CCCCC4)c4ccccc4N(CC(=O)C(C)(C)C)C3=O)c2)NC(=O)CN2CCN(CC(=O)O)CCN(CC(=O)O)CCN(CC(=O)O)CC2)C(=O)N[C@@H](Cc2ccc(O)cc2)C(=O)N[C@H](Cc2c[nH]c3ccccc23)C(=O)N[C@@H](CCCCN)C(=O)N[C@@H]([C@@H](C)O)C(=O)N1)C(=O)O [^177Lu-I-36, metal not drawn]
A. 2.39

Q. Report tissue uptake at 24 h for C[C@@H](O)[C@H](NC(=O)[C@@H]1CSSC[C@H](NC(=O)[C@@H](Cc2ccccc2)NC(=O)[C@H](CCCCNC(=O)c2cccc(NC(=O)N[C@@H]3CN(C4CCCCC4)c4ccccc4N(CC(=O)C(C)(C)C)C3=O)c2)NC(=O)COCCOCCNC(=O)CN2CCN(CC(=O)O)CCN(CC(=O)O)CCN(CC(=O)O)CC2)C(=O)N[C@@H](Cc2ccc(O)cc2)C(=O)N[C@H](Cc2c[nH]c3ccccc23)C(=O)N[C@@H](CCCCN)C(=O)N[C@@H]([C@@H](C)O)C(=O)N1)C(=O)O [^177Lu-I-35, metal not drawn]
A. 0.75

Q. Report tissue uptake at 24 h for C[C@@H](O)[C@H](NC(=O)[C@@H]1CSSC[C@H](NC(=O)[C@@H](Cc2ccccc2)NC(=O)COCCOCCNC(=O)COCCOCCNC(=O)[C@H](CCCCNC(=O)c2cccc(NC(=O)N[C@@H]3CN(C4CCCCC4)c4ccccc4N(CC(=O)C(C)(C)C)C3=O)c2)NC(=O)CN2CCN(CC(=O)O)CCN(CC(=O)O)CCN(CC(=O)O)CC2)C(=O)N[C@@H](Cc2ccc(O)cc2)C(=O)N[C@H](Cc2c[nH]c3ccccc23)C(=O)N[C@@H](CCCCN)C(=O)N[C@@H]([C@@H](C)O)C(=O)N1)C(=O)O [Compound 177Lu-I-39, metal not drawn]
A. 1.07

* * *

experiment: in vivo; settings: BALB/c nude, mouse, in vivo, iv, total radioactivity, % ID/g Spleen
Value Kind: tissue uptake at 24 h (%ID/g)
Give just the number in %ID/g; leave the unit off.

Q. Report tissue uptake at 24 h for C[C@@H](O)[C@H](NC(=O)[C@@H]1CSSC[C@H](NC(=O)[C@@H](Cc2ccccc2)NC(=O)COCCOCCNC(=O)[C@H](CCCCNC(=O)c2cccc(NC(=O)N[C@@H]3CN(C4CCCCC4)c4ccccc4N(CC(=O)C(C)(C)C)C3=O)c2)NC(=O)CN2CCN(CC(=O)O)CCN(CC(=O)O)CCN(CC(=O)O)CC2)C(=O)N[C@@H](Cc2ccc(O)cc2)C(=O)N[C@H](Cc2c[nH]c3ccccc23)C(=O)N[C@@H](CCCCN)C(=O)N[C@@H]([C@@H](C)O)C(=O)N1)C(=O)O [Compound 177Lu-I-37, metal not drawn]
A. 0.2

Q. Report tissue uptake at 24 h for CCCC[C@H](NC(=O)[C@H](Cc1c[nH]c2ccccc12)NC(=O)CNC(=O)[C@H](Cc1ccc(O)cc1)NC(=O)[C@H](C)NC(=O)[C@@H](CCC(=O)O)NC(=O)[C@@H](CCC(=O)O)NC(=O)[C@@H](CCC(=O)O)NC(=O)[C@@H](CCC(=O)O)NC(=O)[C@@H](CCC(=O)O)NC(=O)[C@@H](CCC(=O)O)NC(=O)CN1CCN(CC(=O)O)CCN(CC(=O)O)CCN(CC(=O)O)CC1)C(=O)N[C@@H](CC(=O)O)C(=O)N[C@@H](Cc1ccccc1)C(N)=O [^177Lu-C-2, metal not drawn, reference compound]
A. 0.05

* * *

assay: in vivo; conditions: BALB/c nude, mouse, in vivo, iv, total radioactivity, % ID/g Blood
Value Kind: tissue uptake at 4 h (%ID/g)
Give just the number in %ID/g; leave the unit off.

Q. Report tissue uptake at 4 h for C[C@@H](O)[C@H](NC(=O)[C@@H]1CSSC[C@H](NC(=O)[C@@H](Cc2ccccc2)NC(=O)CN2CCN(CC(=O)O)CCN(CC(=O)O)CCN(CC(=O)O)CC2)C(=O)N[C@@H](Cc2ccc(O)cc2)C(=O)N[C@H](Cc2c[nH]c3ccccc23)C(=O)N[C@@H](CCCCN)C(=O)N[C@@H]([C@@H](C)O)C(=O)N1)C(=O)O [^177Lu-C-1, metal not drawn, reference compound]
A. 0.02

* * *

assay: in vivo; settings: BALB/c nude, mouse, in vivo, iv, total radioactivity, % ID/g Stomach
tissue uptake at 4 h less than 0.2 %ID/g is yes (1); tissue uptake at 4 h greater than or equal to 0.2 %ID/g is no (0).

Q. Determine whether this molecule shows tissue uptake at 4 h lower than 0.2 %ID/g (ties excluded): C[C@@H](O)[C@H](NC(=O)[C@@H]1CSSC[C@H](NC(=O)[C@@H](Cc2ccccc2)NC(=O)[C@H](CCCCNC(=O)COCCOCCNC(=O)c2cccc(NC(=O)N[C@@H]3CN(C4CCCCC4)c4ccccc4N(CC(=O)C(C)(C)C)C3=O)c2)NC(=O)CN2CCN(CC(=O)O)CCN(CC(=O)O)CCN(CC(=O)O)CC2)C(=O)N[C@@H](Cc2ccc(O)cc2)C(=O)N[C@H](Cc2c[nH]c3ccccc23)C(=O)N[C@@H](CCCCN)C(=O)N[C@@H]([C@@H](C)O)C(=O)N1)C(=O)O [^177Lu-I-36, metal not drawn]
A. no (0)

Q. Determine whether this molecule shows tissue uptake at 4 h lower than 0.2 %ID/g (ties excluded): C[C@@H](O)[C@H](NC(=O)[C@@H]1CSSC[C@H](NC(=O)[C@@H](Cc2ccccc2)NC(=O)[C@H](CCCCNC(=O)c2cccc(NC(=O)N[C@@H]3CN(C4CCCCC4)c4ccccc4N(CC(=O)C(C)(C)C)C3=O)c2)NC(=O)COCCOCCNC(=O)CN2CCN(CC(=O)O)CCN(CC(=O)O)CCN(CC(=O)O)CC2)C(=O)N[C@@H](Cc2ccc(O)cc2)C(=O)N[C@H](Cc2c[nH]c3ccccc23)C(=O)N[C@@H](CCCCN)C(=O)N[C@@H]([C@@H](C)O)C(=O)N1)C(=O)O [^177Lu-I-35, metal not drawn]
A. no (0)

Q. Determine whether this molecule shows tissue uptake at 4 h lower than 0.2 %ID/g (ties excluded): CCCC[C@H](NC(=O)[C@H](Cc1c[nH]c2ccccc12)NC(=O)CNC(=O)[C@H](Cc1ccc(O)cc1)NC(=O)[C@H](C)NC(=O)[C@@H](CCC(=O)O)NC(=O)[C@@H](CCC(=O)O)NC(=O)[C@@H](CCC(=O)O)NC(=O)[C@@H](CCC(=O)O)NC(=O)[C@@H](CCC(=O)O)NC(=O)[C@@H](CCC(=O)O)NC(=O)CN1CCN(CC(=O)O)CCN(CC(=O)O)CCN(CC(=O)O)CC1)C(=O)N[C@@H](CC(=O)O)C(=O)N[C@@H](Cc1ccccc1)C(N)=O [^177Lu-C-2, metal not drawn, reference compound]
A. no (0)

Q. Determine whether this molecule shows tissue uptake at 4 h lower than 0.2 %ID/g (ties excluded): CC(C)(C)C(=O)CN1C(=O)[C@H](NC(=O)Nc2cccc(C(=O)N[C@@H](CCC(=O)N[C@@H](CCC(=O)N[C@@H](CCC(=O)N[C@@H](CCCCNC(=O)COCCOCCNC(=O)COCCOCCNC(=O)CCC(C(=O)O)N3CCN(CC(=O)O)CCN(CC(=O)O)CCN(CC(=O)O)CC3)C(N)=O)C(=O)O)C(=O)O)C(=O)O)c2)CN(C2CCCCC2)c2ccccc21 (some centres unmarked) [^177Lu-C-4, metal not drawn, reference compound]
A. yes (1)

Q. Determine whether this molecule shows tissue uptake at 4 h lower than 0.2 %ID/g (ties excluded): C[C@@H](O)[C@H](NC(=O)[C@@H]1CSSC[C@H](NC(=O)[C@@H](Cc2ccccc2)NC(=O)COCCOCCNC(=O)[C@H](CCCCNC(=O)c2cccc(NC(=O)N[C@@H]3CN(C4CCCCC4)c4ccccc4N(CC(=O)C(C)(C)C)C3=O)c2)NC(=O)CN2CCN(CC(=O)O)CCN(CC(=O)O)CCN(CC(=O)O)CC2)C(=O)N[C@@H](Cc2ccc(O)cc2)C(=O)N[C@H](Cc2c[nH]c3ccccc23)C(=O)N[C@@H](CCCCN)C(=O)N[C@@H]([C@@H](C)O)C(=O)N1)C(=O)O [Compound 177Lu-I-37, metal not drawn]
A. no (0)

* * *

test: in vivo; conditions: BALB/c nude, mouse, in vivo, iv, total radioactivity, % ID/g Spleen
Value Kind: tissue uptake at 72 h (%ID/g)
Give just the number in %ID/g; leave the unit off.

Q. Report tissue uptake at 72 h for C[C@@H](O)[C@H](NC(=O)[C@@H]1CSSC[C@H](NC(=O)[C@@H](Cc2ccccc2)NC(=O)[C@H](CCCCNC(=O)c2cccc(NC(=O)N[C@@H]3CN(C4CCCCC4)c4ccccc4N(CC(=O)C(C)(C)C)C3=O)c2)NC(=O)COCCOCCNC(=O)CN2CCN(CC(=O)O)CCN(CC(=O)O)CCN(CC(=O)O)CC2)C(=O)N[C@@H](Cc2ccc(O)cc2)C(=O)N[C@H](Cc2c[nH]c3ccccc23)C(=O)N[C@@H](CCCCN)C(=O)N[C@@H]([C@@H](C)O)C(=O)N1)C(=O)O [^177Lu-I-35, metal not drawn]
A. 0.28
